Source: the Biogen ADME set (Fang et al. 2023)

MEASURE: MDR1-MDCK efflux ratio

SMILES TEXT	MDR1-MDCK efflux ratio
c1ccc(-n2ncc3c(-n4ccnc4)ncnc32)cc1	0.618

1: CC(C)(O)Cn1nc(-c2ccccc2)c2c(Cl)c(-c3ccccc3)nnc21
2: CN1CC(=O)N(CCCC(=O)Nc2cccc(C#Cc3cccs3)c2)C1=O
Asked: Please let me know which one, 1 or 2 , has a lower measured MDR1-MDCK efflux ratio value. Your answer should be the label attached to the chosen record.
Given back: 1

* * *

MEASURE: intrinsic clearance, human liver microsomes (mL/min/kg)

SMILES TEXT	UOM	READOUT VALUE
CCN1CCCN(C(=O)Nc2ccc(COC3CCCC3)cc2)CC1	mL/min/kg	6.32
Cn1ccc(NC(=O)c2cc(-c3ccncc3)nc3ccccc23)n1	mL/min/kg	21.4
CN1C(=O)N(CC(=O)NCc2ccc(Cl)cc2)C(=O)C12CCCCC2	mL/min/kg	796
O=C1NCC2(C/C=C/CCOc3ccccc31)CCN(C(=O)c1ccc3[nH]nnc3c1)CC2	mL/min/kg	42.8
C=CC(=O)N1CCC([C@@H]2CCNc3c(C(N)=O)c(-c4ccc(Oc5ccccc5)cc4)nn32)CC1	mL/min/kg	57.8

I: CN(C)c1ccc(-c2ccc(COCc3cccs3)cc2)nn1
II: O=C(Nc1cnc2ccccc2n1)c1ccncc1
III: CN(C)S(=O)(=O)Nc1ccc(-n2ncc3ccccc32)cc1
IV: CN1CCN(c2ccc(NC(=O)c3ccc(S(=O)(=O)N4CCCc5ccccc54)cc3)cc2)CC1
V: CN(C(=O)CSC(C)(C)C)c1ccccc1C#N
Asked: Task field, ranking: reported intrinsic clearance, human liver microsomes, descending order. Your task in answering is to list the labels in the requested order.
Given back: IV, I, V, III, II

* * *

# STATED CONDITIONS: pH 6.8
MEASURE: aqueous solubility (µg/mL)

SMILES TEXT	MEASURE	READOUT VALUE
COc1cccc(CNc2ncc(-c3ccccc3)n2C)c1	aqueous solubility	23.5
N#CC[C@H](C1CCCC1)n1cc(-c2ncnc3[nH]ccc23)cn1	aqueous solubility	34.5
Cc1ccnc(C2CCN(C3CCCC3)CC2)n1	aqueous solubility	16.1
CCn1nccc1-c1cc(CC2CCNCC2)ncn1	aqueous solubility	37.3
CC(=O)Nc1cccc(OCC(=O)N2CCCCC2)c1	aqueous solubility	42.4

I: CC(C)c1cc(CN(C)Cc2c[nH]nc2-c2ccc(F)cc2)no1
II: Cc1noc(-c2ccccc2C(=O)O)n1
Asked: Lab note: check whether I or II has the lower measured aqueous solubility. Write the label of whichever entry you select.
Given back: I
(I: 22.2 µg/mL, II: 35.3 µg/mL)

I: COc1ccc(-c2nc(CC(N)=O)sc2C)cc1.Cl
II: CCN(C(=O)c1cc(NC(C)=O)ccc1F)C1CCCC1
Asked: Pick one: I or II . Which one has the lower reported aqueous solubility? Pick one and reply with its label.
Given back: I

1: O=C(NCc1ccc(CO)c(F)c1)Nc1ccccc1
2: Cn1ccnc1COc1ccc(CO)cc1
Asked: Return label of the item with the larger aqueous solubility. Candidates: 1 , 2 . Identify your pick by its label.
Given back: 2

* * *

MEASURE: intrinsic clearance, rat liver microsomes (mL/min/kg)

Illustrative cases are given below, each with its answer.
COMPOUND	READOUT VALUE
O=C1C(N2CCC(n3c(=O)[nH]c4ccccc43)CC2)CCN1c1ccccc1 (stereo not drawn)	139
Fc1ccc2[nH]c(CO[C@H]3CN(Cc4ccccc4)C[C@H]3F)nc2c1	971
CCc1nnc(Sc2nc3cc(C)nn3c3ccccc23)[nH]1	139
Cc1cc(-c2nncc3c(C(C)(C)C)c(OCc4ncnn4C)nn23)no1	83.6
CNC(=O)C1(Cc2ccc(-c3cccnc3)cc2)CCN(Cc2ccc(F)cc2)C1 (stereo not drawn)	756
CCN1CCc2ncnc(N3CCNc4ccccc4C3)c2C1	105
Cc1nn(C)c(C)c1CCC(=O)N1CCN(C)Cc2ccccc21	279
CC(C(O)c1ccc(O)cc1)N1CCC(Cc2ccccc2)CC1 (stereo not drawn)	960

a: CN1C(=O)[C@H]2CN(CC3=CC[C@H]4C[C@@H]3C4(C)C)C[C@H]2C1=O
b: CNCc1cc(N(C)C)nc(C2CCCN2C(=O)c2oc3ccc(Cl)cc3c2C)n1 (stereo not drawn)
c: Cc1cccnc1CNc1ccc(C#N)cc1F
d: Cc1ccc(C#N)c(NC(=O)CCc2ccccc2)n1
e: Cc1ccc(CN)c(-n2cc(Cl)cn2)n1
Asked: Could you please order the items by intrinsic clearance, rat liver microsomes, going from the lowest number to the highest? Reply: labels, ordered per the request.
Given back: e, c, d, b, a
(e: 27.4 mL/min/kg, c: 161 mL/min/kg, d: 240 mL/min/kg, b: 840 mL/min/kg, a: 2390 mL/min/kg)

A: OCc1nnc(SCCSC2CCCCC2)n1C1CC1
B: COc1ccccc1CC(=O)NC1CCN(C)CC1
Asked: intrinsic clearance, rat liver microsomes comparison. Which is larger, A or B ? Pick one; state its label.
Given back: A
(A: 728 mL/min/kg, B: 54.6 mL/min/kg)

1: COc1cc(-c2ccc(C)s2)cc2c1OCCN(c1noc(C)n1)C2
2: c1cnc(-n2cccn2)c(CNC2CCCC2)c1
3: COCCN(C)c1ccc(CN2CCc3nn(C)c(=O)cc3C2)cn1
4: COCCN(C)C(=O)c1ccc(-c2cccc(-c3noc(C)n3)c2)cc1
5: CC#CC(=O)N[C@H]1CCCN(c2c(F)cc(C(N)=O)c3[nH]c(C)c(C)c23)C1
Asked: Rank by intrinsic clearance, rat liver microsomes (largest to smallest). Labels, requested order.
Given back: 1, 5, 4, 2, 3
